TARGET OR TEST SYSTEM: Peroxisome proliferator-activated receptor alpha (Mus musculus, UniProt P23204)
Sequence (P23204 whole entry): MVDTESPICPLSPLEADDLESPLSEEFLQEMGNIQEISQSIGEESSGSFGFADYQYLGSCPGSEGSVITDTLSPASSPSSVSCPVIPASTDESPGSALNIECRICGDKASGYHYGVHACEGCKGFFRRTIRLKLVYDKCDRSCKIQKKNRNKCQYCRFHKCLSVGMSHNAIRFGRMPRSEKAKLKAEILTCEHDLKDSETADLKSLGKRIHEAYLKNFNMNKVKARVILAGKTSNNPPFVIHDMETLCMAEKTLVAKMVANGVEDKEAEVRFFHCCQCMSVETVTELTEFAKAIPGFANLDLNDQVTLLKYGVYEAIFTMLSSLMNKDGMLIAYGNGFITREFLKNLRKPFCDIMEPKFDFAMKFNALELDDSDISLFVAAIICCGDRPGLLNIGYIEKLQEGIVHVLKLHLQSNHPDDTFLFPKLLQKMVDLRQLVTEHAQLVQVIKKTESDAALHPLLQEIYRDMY
TEST DESCRIPTION: Agonist activity at mouse PPARalpha
RECORDED METRIC: EC50 (µM)

INSERT INTO measurements (compound, target_or_test_system, recorded_measurement) VALUES
  ('CC(C)(Oc1ccc(CCNC(=O)c2ccc(Cl)cc2)cc1)C(=O)O [BEZAFIBRATE]', 'Peroxisome proliferator-activated receptor alpha (Mus musculus, UniProt P23204)', 50),
  ('CCOC(=O)C(C)(C)Oc1ccc(Cl)cc1 [CLOFIBRATE]', 'Peroxisome proliferator-activated receptor alpha (Mus musculus, UniProt P23204)', 55);
